Reference for the values: the supplement of paper PMC6555819

Tested on: THRa homodimer (NR concentration 90 nM)
assay: PBM binding z-score (relative to random genomic background probes); higher = stronger binding; sequences stand for … in GC…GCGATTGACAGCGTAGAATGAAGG
endpoint: PBM binding z-score
Response field accepts a number only; no unit should be typed.

Given the sequence "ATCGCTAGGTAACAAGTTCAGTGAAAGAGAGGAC" , what is its reported PBM binding z-score? 0.174

PBM binding z-score for "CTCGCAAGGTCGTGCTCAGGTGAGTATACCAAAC" ? 1.6

For the sequence shown here, "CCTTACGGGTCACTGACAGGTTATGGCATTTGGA" , give the reported PBM binding z-score. 0.174

What measured PBM binding z-score goes with "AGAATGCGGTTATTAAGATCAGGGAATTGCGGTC" ? -0.416

Reported PBM binding z-score for "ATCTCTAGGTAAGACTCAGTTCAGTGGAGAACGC" : what is it? 0.583

# get_value(readout='PBM binding z-score', item= "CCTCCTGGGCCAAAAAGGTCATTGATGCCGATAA" ) 0.604

Query (sequence): "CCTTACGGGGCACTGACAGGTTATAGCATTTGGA" ; field requested: PBM binding z-score -0.73

Please give the measured PBM binding z-score for this sequence: "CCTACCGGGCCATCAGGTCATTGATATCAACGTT" 3.37

Look at this sequence and give its reported PBM binding z-score. "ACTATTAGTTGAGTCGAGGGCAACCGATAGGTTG" 0.603

# query: PBM binding z-score of entry "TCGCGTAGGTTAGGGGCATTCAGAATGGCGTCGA" 0.102

// returns reported PBM binding z-score for input "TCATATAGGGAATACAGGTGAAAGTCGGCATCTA" 0.624

Suppose we examine the sequence "ATATGTAGGTTATCGGGTTATTCAGTTTGCGCAT" ; what PBM binding z-score value has been reported? 1.58
